Source of measurements: PubChem BioAssay (NCI)

System: A549/ATCC NSCLC
Test: NCI-60 one-dose screen, 48 h (100 = growth as untreated, 0 = no growth, -100 = all killed)
Conditions: 10 µM unless noted
About 83,000 compounds went through this panel and 20% of them were active in at least one assay; those are over-represented in the sample as a whole. The source made the active and inactive calls. How the source made its calls: active means growth percent below 10; inactive means the rest.
Recorded measurements of growth, one per entry

Check out these entries, answers already filled in.
>  <molecule>
Cn1c2c(Cl)c(Cl)ccc2c2ccn3c(=O)c4ccccc4nc3c21

>  <assay_system>
A549/ATCC NSCLC

>  <growth>
108% (inactive)

$$$$
>  <molecule>
Cc1[nH]n(-c2ccccc2)c2nc3nncc3c(-c3ccc(Cl)cc3)c12

>  <assay_system>
A549/ATCC NSCLC

>  <growth>
84.9% (inactive)

$$$$
>  <molecule>
Cc1cc(N/N=C/c2nc(-c3ccc(Cl)cc3)oc2C)c2cc(Br)ccc2n1

>  <assay_system>
A549/ATCC NSCLC

>  <growth>
17.1% (inactive)

$$$$

Prompt: So what growth did Cc1ccc2c(c1)C(=O)c1c-2c(OCCCN(C)C)nc2ccccc12 get with A549/ATCC NSCLC?
Completion: -43.9% (active)

Prompt: Which growth is reported with A549/ATCC NSCLC for this entry: O=C1/C(=C/c2ccccc2)CN(CCC(=O)N2C/C(=C\c3ccccc3)C(=O)/C(=C/c3ccccc3)C2)C/C1=C\c1ccccc1 ?
Completion: 88.2% (inactive)
